# test-description: in vivo;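 also: radiolabelled ligand targeting bombesin receptors, given by intravenous injection at varied injected mass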
# assay-setup: rat, stomach, 0.025 ug, total radioactivity

- compound: "CSCC[C@H](NC(=O)[C@H](CC(C)C)NC(=O)[C@H](Cc1c[nH]cn1)NC(=O)CNC(=O)[C@@H](NC(=O)[C@H](C)NC(=O)[C@H](Cc1c[nH]c2ccccc12)NC(=O)[C@H](CCC(N)=O)NC(=O)[C@H](CC(N)=O)NC(=O)CNC(=O)[C@H](Cc1ccc(O)cc1)NC(=O)[C@H](CCCNC(=N)N)NC(=O)[C@H](CCC(N)=O)NC(=O)[C@@H]1CCCN1C(=O)CN(CCN(CCN(CC(=O)O)CC(=O)O)CC(=O)O)CC(=O)O)C(C)C)C(N)=O [[^111In-DTPA^0, Pro^1, Tyr^4] bombesin, metal not drawn]"
  tissue uptake at 48 h: "0.065 %ID/g"
